Hello, the source for this data is patent US20100196321A1, in case you need it.

System: sub-genomic HCV NS3-NS5B replicon of genotype 1b (ET subline) in Huh-7 cells
Assay: Replicon Luciferase Cell Based Assay, genotype 1b
Parameters: species or system HCV genotype 1b
Settings: Hepatitis C virus, Huh-7, 48 h, read-out: Genotype 1b (IC50 μM)
Entries and their measured IC50 follow.

Please review the following examples before continuing.
1. COc1ccc2c(O[C@@H]3C[C@H]4C(=O)N[C@]5(C(=O)NS(=O)(=O)C6CC6)C[C@H]5/C=C\CCCCC[C@H](NC(=O)N5CC(F)(F)C5)C(=O)N4C3)cc(-c3nc(C(C)C)cs3)nc2c1C < 0.01 µM
2. COc1ccc2c(O[C@@H]3C[C@H]4C(=O)N[C@]5(C(=O)NS(=O)(=O)C6CC6)C[C@H]5/C=C\CCCCC[C@H](NC(=O)N5CCC(O)CC5)C(=O)N4C3)cc(-c3nc(C(C)C)cs3)nc2c1C < 0.01 µM

Next, consider the following molecule.
// IC50 lookup, key: COc1ccc2c(O[C@@H]3C[C@H]4C(=O)N[C@]5(C(=O)NS(=O)(=O)C6CC6)C[C@H]5/C=C\CCCCC[C@H](NC(=O)N(C(C)C)C(C)C)C(=O)N4C3)cc(-c3nc(C4CC4)cs3)nc2c1C < 0.01 µM
